Tgt: Receptor-interacting serine/threonine-protein kinase 2 (Homo sapiens)
Assay details: Inhibition of RIPK2 (unknown origin) by ADP-Glo assay
Experimental readout: IC50 (nM)
Report only the number, with the unit nM understood.

Q: IC50 lookup needed for c1cc(-c2ccc3ncnc(Nc4ccc5scnc5c4)c3c2)ccn1 , thanks.
A: 5.1

###

Tgt: von Hippel-Lindau disease tumor suppressor/Receptor-interacting serine/threonine-protein kinase 2 (Homo sapiens, UniProt O43353+P40337)
Sequence (O43353 whole entry): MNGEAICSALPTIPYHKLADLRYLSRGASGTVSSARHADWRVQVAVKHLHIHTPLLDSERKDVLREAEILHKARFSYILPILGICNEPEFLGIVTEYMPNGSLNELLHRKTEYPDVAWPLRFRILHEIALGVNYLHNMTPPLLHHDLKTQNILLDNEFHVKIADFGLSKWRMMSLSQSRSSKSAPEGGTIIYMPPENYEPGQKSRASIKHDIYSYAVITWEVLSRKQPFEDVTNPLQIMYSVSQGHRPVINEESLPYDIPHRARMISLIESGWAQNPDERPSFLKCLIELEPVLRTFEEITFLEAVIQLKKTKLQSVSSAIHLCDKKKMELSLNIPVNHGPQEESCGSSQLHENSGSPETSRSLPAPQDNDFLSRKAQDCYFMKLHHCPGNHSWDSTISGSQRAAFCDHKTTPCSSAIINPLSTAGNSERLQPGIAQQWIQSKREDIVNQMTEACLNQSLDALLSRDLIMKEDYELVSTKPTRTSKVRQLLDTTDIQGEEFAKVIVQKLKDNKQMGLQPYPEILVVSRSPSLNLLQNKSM
Sequence (P40337 whole entry): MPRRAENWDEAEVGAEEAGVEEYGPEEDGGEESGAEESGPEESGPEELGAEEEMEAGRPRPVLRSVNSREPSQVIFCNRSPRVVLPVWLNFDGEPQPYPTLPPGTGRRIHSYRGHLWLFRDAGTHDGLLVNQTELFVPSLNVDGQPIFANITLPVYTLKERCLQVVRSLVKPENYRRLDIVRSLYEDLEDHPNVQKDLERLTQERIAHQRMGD
Assay details: Protac activity at VHL/RIPK2 in human THP-1 cells assessed as RIPK2 degradation measured after 16 hrs by Western blot analysis
Experimental readout: pIC50
Please keep in mind that pIC50 is minus log10 of the molar concentration; only the number is needed.

Q: pIC50 lookup needed for Cc1ncsc1-c1ccc(CNC(=O)C2C[C@H](O)CN2C(=O)[C@@H](NC(=O)COCCOCCOCCOCCOc2cc3nccc(Nc4ccc5scnc5c4)c3cc2S(=O)(=O)C(C)(C)C)C(C)(C)C)cc1 (stereo partly specified) , thanks.
A: 8.70

###

Tgt: Receptor-interacting serine/threonine-protein kinase 2 (Homo sapiens)
Assay details: Inhibition of RIPK2 (unknown origin) using (CRRKSLVGTPYWMAPE) peptide as substrate pre-incubated for 60 mins followed by substrate addition and measured after 2 hrs by fluorescence polarization assay
Experimental readout: IC50 (nM)
Report only the number, with the unit nM understood.

Q: IC50 lookup needed for Cc1ccc(-c2nn(C(C)(C)CN(C)C)c3ncnc(N)c23)cc1 , thanks.
A: 1010

###

Tgt: Receptor-interacting serine/threonine-protein kinase 2 (Homo sapiens)
Assay details: Inhibition of full length FLAG His-tagged RIPK2 (unknown origin) expressed in Baculovirus by fluorescence polarization assay
Collected pIC50 values appear next to each entry.
Please keep in mind that pIC50 is minus log10 of the molar concentration; only the number is needed.

Some compounds with recorded pIC50:
Smiles notation | Tgt | pIC50
c1cc(-c2ccc3ncnc(Nc4ccc5scnc5c4)c3c2)ccn1 | Receptor-interacting serine/threonine-protein kinase 2 (Homo sapiens) | 8.29
c1cc2cc(n1)NCCOCCNc1ccc3ncc-2n3n1 | Receptor-interacting serine/threonine-protein kinase 2 (Homo sapiens) | 7.85
Cc1ccc(-c2cn([C@H]3CC[C@@H](N)CC3)c3ncnc(N)c23)c(F)c1 | Receptor-interacting serine/threonine-protein kinase 2 (Homo sapiens) | 9.22

// next item, pIC50 requested
Q: pIC50 lookup needed for Cc1ccc(-c2nn(C(C)(C)CN(C)C)c3ncnc(N)c23)cc1 , thanks.
A: 8.00

###

Tgt: Receptor-interacting serine/threonine-protein kinase 2 (Homo sapiens, UniProt O43353)
Sequence (O43353 whole entry): as the sequence (O43353 whole entry) above
Assay details: Inhibition of RIPK2 (unknown origin) expressed in Escherichia coli
Experimental readout: pIC50
Please keep in mind that pIC50 is minus log10 of the molar concentration; only the number is needed.

Q: pIC50 lookup needed for c1cc2cc(n1)NCCOCCNc1ccc3ncc-2n3n1 , thanks.
A: 7.85

Hello, the source for this data is ChEMBL document CHEMBL5625207, in case you need it.
